Consider the following molecules; for each one, report its fold change of Cadaverine concentration.
# Tested on: Klebsiella aerogenes DSM 30053
# TEST_DESCRIPTION: fold change of Cadaverine concentration vs plate DMSO controls (fold change (ratio)); higher = more amine produced, active = hit call of the paper (significant change in both replicates, either direction)
# RUN_PARAMETERS: incubation time: 27 h, anaerobic, 37 °C
Counter-ions that a name gives are not always drawn.
# output: bare number, no unit

Quick one: give measured fold change of Cadaverine concentration for Cc1onc(-c2ccccc2)c1C(=O)N[C@@H]1C(=O)N2[C@@H]1SC(C)(C)[C@@H]2C(=O)O [Oxacillin sodium] (20 µM)
0.984

Quick one: give measured fold change of Cadaverine concentration for CCN(Cc1ccncc1)C(=O)C(CO)c1ccccc1 (centres undefined) [Tropicamide] (20 µM)
1.03

Quick one: give measured fold change of Cadaverine concentration for CCOC(=O)[C@H](CCc1ccccc1)N[C@H]1CS[C@H](c2cccs2)CN(CC(=O)O)C1=O [Temocapril hydrochloride] (20 µM)
1.01

Quick one: give measured fold change of Cadaverine concentration for CC(C(=O)O)c1ccc(-c2ccccc2)c(F)c1 (centres undefined) [Flurbiprofen] (20 µM)
1.01

Quick one: give measured fold change of Cadaverine concentration for Cc1cccc(C)c1NC(=O)CN1CCN(CCCC(c2ccc(F)cc2)c2ccc(F)cc2)CC1 [Lidoflazine] (20 µM)
0.996

Quick one: give measured fold change of Cadaverine concentration for CCN1CCN(c2cc3c(cc2F)c(=O)c(C(=O)O)cn3C2CC2)CC1 [Enrofloxacin] (20 µM)
0.938

Quick one: give measured fold change of Cadaverine concentration for CCCNC(C)C(=O)Nc1c(C)csc1C(=O)OC (centres undefined) [Articaine hydrochloride] (20 µM)
1.01

Quick one: give measured fold change of Cadaverine concentration for COC(=O)Nc1nc2cc(Sc3ccccc3)ccc2[nH]1 [Fenbendazole] (20 µM)
0.991

Quick one: give measured fold change of Cadaverine concentration for CC1=C(C(=O)O)N2C(=O)[C@@H](NC(=O)[C@H](N)C3=CCC=CC3)[C@H]2SC1 [Cephradine monohydrate] (20 µM)
0.988

Quick one: give measured fold change of Cadaverine concentration for O=C(Nc1cccc2c(=O)cc(-c3nnn[nH]3)oc12)c1ccc(OCCCCc2ccccc2)cc1 [Pranlukast] (20 µM)
1.02

Quick one: give measured fold change of Cadaverine concentration for CO[C@H]1C[C@H](O[C@H]2[C@H](C)[C@@H](O[C@@H]3O[C@H](C)C[C@H](N(C)C)[C@H]3OC(C)=O)[C@@H](C)C[C@@]3(CO3)C(=O)[C@H](C)[C@@H](OC(C)=O)[C@@H](C)[C@@H](C)OC(=O)[C@@H]2C)O[C@@H](C)[C@@H]1OC(C)=O [Troleandomycin] (20 µM)
1.01

Quick one: give measured fold change of Cadaverine concentration for N=c1nc(N2CCCCC2)cc(N)n1O [Minoxidil] (20 µM)
1.01

Quick one: give measured fold change of Cadaverine concentration for CC(C(=O)O)c1cccc(Oc2ccccc2)c1 (centres undefined) [Fenoprofen calcium salt dihydrate] (20 µM)
1

Quick one: give measured fold change of Cadaverine concentration for Fc1ccc([C@@H]2CCNC[C@H]2COc2ccc3c(c2)OCO3)cc1 [Paroxetine hydrochloride] (20 µM)
0.991
